Values were extracted from PubChem BioAssay AID1626.

Test: M. tuberculosis H37Rv growth inhibitors, H37Rv strain (AID 1626);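 note: bacteria incubated seven days before Alamar blue readout; 0% = bacteria only wells and 100% = bacteria with antibiotic wells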
Details: hits give high values, concentration not given here
Hit rate of the full screen: of about 220,000 compounds, about 2,000 (0.91%) were called active. About 2% were inconclusive and are not listed. Not all results are given here. Results with a measured potency or affinity are listed apart.
result-type: inhibition (%)
Provide the reading as a plain figure in %.

molecule: CCCC1(CCC)C(=O)NC(=NCc2ccccc2)NC1=O
inhibition (%): -6.66
--
molecule: O=C(/C=C/c1cccs1)Nc1nc(-c2ccccc2)cs1
inhibition (%): -0.14
--
molecule: CCc1ccc(C(C)NC(=O)Cc2ccc(F)cc2)cc1 (stereo unspecified)
inhibition (%): 9.96
--
molecule: CCCCC(Sc1nc(N)c(NC(=O)c2ccc(OC)cc2)c(=O)[nH]1)C(=O)O (stereo unspecified)
inhibition (%): -2.8
--
molecule: CCOC(=O)c1ccc(NC(=O)CN2C(=O)CCC2=O)cc1
inhibition (%): -7.66

The value of inhibition measured for the molecule CC(=O)c1c(C)nn(CC(O)Cn2c3c(c4cc(C)ccc42)CCCC3=O)c1C (stereo unspecified) turned out to be 7.8

The value of inhibition measured for the molecule S=C(NCC1CCCO1)Nc1ccccc1Cl (stereo unspecified) turned out to be -6.63

The value of inhibition measured for the molecule COc1cccc(NC(=O)N[C@@H](Cc2ccccc2)C(=O)O)c1 turned out to be 1.84

====

Experiment: M. tuberculosis H37Rv growth inhibitors, H37Rv strain (AID 1626)
Settings: hits give high values, concentration not given here
Screen size: about 220,000 compounds; about 2,000 (0.91%) were called active. Not shown: some 2% with an inconclusive outcome. These entries were drawn from the full list. Results with a measured potency or affinity are listed apart.
result-type: inhibition (%)
Provide the reading as a plain figure in %.

Examples with answers:
compound: Cc1ccc(C(NC(=O)/C=C\c2ccc3c(c2)OCO3)C(=O)Nc2ccc3c(c2)OCO3)cc1 (configuration not stated)
inhibition / %: 61.7

compound: Cc1ccc2nc3c(nc2c1)-c1ccccc1C3=O
inhibition / %: -8.47

The value of inhibition measured for the compound COc1ccc2c(c1)CCC/C2=N/OC(=O)c1ccccc1OC turned out to be 10.5

The value of inhibition measured for the compound Cc1cc(C)nc(NS(=O)(=O)c2ccc(NC(=O)c3ccco3)cc2)n1 turned out to be 3.55

The value of inhibition measured for the compound CCc1nc(N2CCN(C(=O)c3ccccc3)CC2)c(C#N)c2c1COC(C)(C)C2 turned out to be -3.57

The value of inhibition measured for the compound Cc1ccc2nc(-c3ccccc3)c(-c3ccccc3)nc2c1 turned out to be 1.48

====

Test: M. tuberculosis H37Rv growth inhibitors, H37Rv strain (AID 1626)
Conditions: hits give high values, concentration not given here
The campaign covered roughly 220,000 compounds. About 2,000 (0.91%) were called active. Another 2% or so got no clear call; they are omitted. A selection follows. Potency and affinity values are given separately.
result-type: inhibition (%)
Provide the reading as a plain figure in %.

Examples with answers:
compound: Cc1ccc(N/C=C/C(=O)C(C)(C)C)c(O)c1
measure-unit: %
endpoint-value: -0.76

compound: COC(=O)c1cc(NS(=O)(=O)c2ccc(C)c3ccccc23)ccc1N1CCOCC1
measure-unit: %
endpoint-value: -0.65

compound: CCCc1cc(=O)oc2c(CN3CCCC3)c(O)ccc12
measure-unit: %
endpoint-value: -6.61

compound: COc1ccccc1N1CCN(C(=O)COc2ccc(S(=O)(=O)NC(C)(C)C)cc2)CC1
measure-unit: %
endpoint-value: 0.98

compound: O=C1N=C(N2CCN(c3ccccc3)CC2)SC1Cc1ccccc1 (stereo not given)
measure-unit: %
endpoint-value: 1.7

As a next step, examine the compound that follows.
The value of inhibition measured for the compound COc1cccc(-c2ccc(C#N)c(=O)[nH]2)c1 turned out to be -3.44

====

Assay: M. tuberculosis H37Rv growth inhibitors, H37Rv strain (AID 1626);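 note: bacteria incubated seven days before Alamar blue readout; 0% = bacteria only wells and 100% = bacteria with antibiotic wells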
Details: hits give high values, concentration not given here
About 2,000 (0.91%) of roughly 220,000 compounds were called active. About 2% were inconclusive and are not listed. Only a sample is shown. Potency and affinity values are given separately.
result-type: inhibition (%)
Provide the reading as a plain figure in %.

compound: CC(C)(C)Nc1nc(N2CCCC2)nc(N2CCCC2)n1
inhibition [%]: 14.2
//
compound: COC(=O)OCC12CCC(O1)C1(C)C(=O)OCC21 (configuration not stated)
inhibition [%]: 2.41
//
compound: O=S(=O)(N1CCOCC1)N1CCN(c2ccc(F)cc2)CC1
inhibition [%]: -7.1

The value of inhibition measured for the compound CC1(C)CCCC2=C1CC1C(=O)N(N)C(=O)C1C2 (configuration not stated) turned out to be 2.05

The value of inhibition measured for the compound O=C(/C=C/c1ccco1)NC(=S)Nc1ccccn1 turned out to be 2.96

The value of inhibition measured for the compound Cn1cnc([N+](=O)[O-])c1Oc1ccc2ccccc2c1 turned out to be 13.9

The value of inhibition measured for the compound Clc1cccc(-c2nc(NCc3cccnc3)c3ccccc3n2)c1 turned out to be 74.3

The value of inhibition measured for the compound O=C1CC(c2nc3ccccc3[nH]2)CN1c1cccc(C(F)(F)F)c1 (configuration not stated) turned out to be 2.87

The value of inhibition measured for the compound CCC(=O)Nc1cccc2c1C(=O)N(C)C2=O turned out to be -8.82

The value of inhibition measured for the compound COc1ccc(-c2nnc3ccc(SC(C(C)=O)C(C)=O)nn23)cc1OC turned out to be 2.29

The value of inhibition measured for the compound c1ccc(CNc2nc(-c3cccs3)nc3ccccc23)cc1 turned out to be 13.4

The value of inhibition measured for the compound CCNc1nc(N2CCCC2)nc(N2CCCC2)n1 turned out to be 1.64

====

Experiment: M. tuberculosis H37Rv growth inhibitors, H37Rv strain (AID 1626);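 note: bacteria incubated seven days before Alamar blue readout; 0% = bacteria only wells and 100% = bacteria with antibiotic wells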
Conditions: hits give high values, concentration not given here
About 2,000 (0.91%) of roughly 220,000 compounds were called active. Inconclusive results (about 2%) are left out. These entries were drawn from the full list. Potency and affinity values are given separately.
Below, each of the compounds is paired with its reported inhibition value.
Provide the reading as a plain figure in %.

Examples with answers:
compound: Clc1cccc(-c2nc(NCCCN3CCOCC3)c3ccccc3n2)c1
measure-unit: %
inhibition: 15

compound: CC(C)[C@H](NC(=O)NCc1ccc(F)cc1)C(=O)O
measure-unit: %
inhibition: -4.85

compound: Clc1ccc(-c2nc(NCCN3CCOCC3)c3ccccc3n2)cc1
measure-unit: %
inhibition: 11.1

compound: COc1ccc(NC(=O)CCC(=O)OCc2ccc(C(=O)Oc3ccc(Cl)cc3)cc2)cc1
measure-unit: %
inhibition: 23.3

compound: Cc1ccccc1-n1ncc(C(C)NC(=O)c2ccccc2)c1C (stereo not given)
measure-unit: %
inhibition: -0.68

compound: c1ccc(-c2nnc(CSc3nnc(-c4cccs4)o3)o2)cc1
measure-unit: %
inhibition: 39.4

compound: COc1ccc(C(CCNCc2ccccc2)c2ccc(F)cc2)cc1 (stereo not given)
measure-unit: %
inhibition: -2.55

compound: COc1ccc(CNCCC(c2ccc(OC(C)C)cc2)C(C)C)cc1OC (stereo not given)
measure-unit: %
inhibition: 45.4

compound: CC(=O)O[C@]1(c2ccccc2)CCN(C)[C@H]2CCCC[C@@H]21
measure-unit: %
inhibition: -5.42

compound: CCN(CC)S(=O)(=O)c1ccc(N2CCOCC2)c(NC(=O)c2ccc(NC(C)=O)cc2)c1
measure-unit: %
inhibition: -0.34

The value of inhibition measured for the compound Cc1nn2c(N)c(C#N)cnc2c1-c1ccccc1 turned out to be -6.08

The value of inhibition measured for the compound COc1ccc(-c2nc3ccccc3c(=O)n2CCOc2ccccc2C)cc1 turned out to be 0.63

The value of inhibition measured for the compound CN(C)C(=O)Oc1ccc(Cl)c2cccnc12 turned out to be -4.68

The value of inhibition measured for the compound Cc1nn(-c2ccccc2)c2c1C(c1ccc([N+](=O)[O-])cc1)C(C#N)=C(N)O2 (stereo not given) turned out to be -9.83

The value of inhibition measured for the compound CC(=O)C1C(=O)C=C(c2cccs2)CC1c1ccccc1 (stereo not given) turned out to be 2.98

====

Assay: M. tuberculosis H37Rv growth inhibitors, H37Rv strain (AID 1626);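 note: bacteria incubated seven days before Alamar blue readout; 0% = bacteria only wells and 100% = bacteria with antibiotic wells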
Conditions: hits give high values, concentration not given here
The whole screen tested about 220,000 compounds, of which about 2,000 (0.91%) were called active. Roughly 2% stayed inconclusive and do not appear here. Not all results are given here. Measured potencies and affinities stand elsewhere.
Below, each of the compounds is paired with its reported inhibition value.
Provide the reading as a plain figure in %.

Examples with answers:
input-smiles: O=[N+]([O-])c1cccc(Cl)c1CSc1ccccn1
inhibition / %: 0.94
--
input-smiles: CC(=O)Nc1ccc2c(c1)CCCC2
inhibition / %: 0.76
--
input-smiles: O=c1c2cn[nH]c2[nH]c(=S)n1-c1cccc2ccccc12
inhibition / %: 8.18
--
input-smiles: O=C(NCc1nnc2n1CCCCC2)c1ccc(Cl)cc1Cl
inhibition / %: -8.85
--
input-smiles: O=c1nc(NCc2ccco2)sc2ncccc12
inhibition / %: -7.68

The value of inhibition measured for the compound CC(=O)Nc1cccc(-c2nnc(-c3ccccc3)o2)c1 turned out to be -12.3

The value of inhibition measured for the compound O=C(COc1ccc(Cl)cc1)Nc1nnc(-c2ccco2)o1 turned out to be 0.85
